Reference source: patent US20220354835A1

# Tested On: Tau aggregates in P301L-Tau-FL-GFP HEK293 cells (Homo sapiens, UniProt P10636, P618L)
# Construct: express full-length human tau T40 (2N4R) carrying the P301L mutation with a GFP tag; expressed in transfected cells
# Sequence (P10636 1-441 isoform P10636-8 P301L): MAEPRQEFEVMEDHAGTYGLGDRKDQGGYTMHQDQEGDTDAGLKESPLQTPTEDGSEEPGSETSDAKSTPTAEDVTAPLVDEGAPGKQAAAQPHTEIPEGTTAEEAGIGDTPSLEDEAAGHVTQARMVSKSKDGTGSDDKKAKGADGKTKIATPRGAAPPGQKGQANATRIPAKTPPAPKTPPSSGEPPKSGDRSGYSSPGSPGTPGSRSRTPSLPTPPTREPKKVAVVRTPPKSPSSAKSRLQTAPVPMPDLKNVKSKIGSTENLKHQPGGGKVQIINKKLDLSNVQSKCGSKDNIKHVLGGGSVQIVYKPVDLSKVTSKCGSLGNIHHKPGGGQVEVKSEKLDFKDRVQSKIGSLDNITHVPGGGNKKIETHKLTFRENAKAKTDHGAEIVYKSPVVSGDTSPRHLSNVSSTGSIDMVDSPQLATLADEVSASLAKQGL
# Protocol Details: Tau degradation assay (APNmAb005 ELISA-based Tau aggregation assay)
# Assay type: cell-based
# Experimental Setup: 1 μM of compound, 24 hours, P301L-Tau-FL-GFP HEK293 cells seeded with rTg4510 brain lysate; read-out: Activity (reduction of tau aggregates)
Readout Kind: inhibition at 1 µM

Sample answers from the record:
CN(C)c1ccc(-c2ccc(-c3cn4cc(OCCOCCOCCOCCOCCOCCOc5ccc6c(c5)C(=O)N(C5CCC(=O)NC5=O)C6=O)ccc4n3)cc2)c(F)n1 (stereo not drawn) [Compound 160744] | 10 to 20%
CN(C)c1ccc(-c2ccc(-c3nc4ccc(NCCOCCOc5ccc6c(c5)C(=O)N(C5CCC(=O)NC5=O)C6=O)cc4s3)cc2)cn1 (stereo not drawn) [Compound 160219] | < 10%

# ---- query molecule ----
Looking up COc1ccc2nc(-c3ccc(-c4ccc(NCCOCCOCCOCCOCCOCCOc5ccc6c(c5)C(=O)N(C5CCC(=O)NC5=O)C6=O)nc4F)cc3)cn2c1 (stereo not drawn) [Compound 161409] , I found its inhibition at 1 µM recorded as 10 to 20%

* * *

# Tested On: heparin-induced aggregated tau (aTau), full-length 2N4R human Tau (Homo sapiens, UniProt P10636)
# Construct: transformed with a full-length 2N4R tau expression plasmid
# Sequence (P10636 1-441 isoform P10636-8): as the sequence (P10636 1-441 isoform P10636-8 P301L) above, with L301P counted along it
# Protocol Details: PBB5 competition assay
# Experimental Setup: 0.12 μM aTau, 0.1 μM PBB5, 37° C. 1 hour, PBB5 fluorescence 530/690 nm
// pIC50 lookup, one value per entry
// pIC50: -log10(molar conc.)

Sample answers from the record:
CN(C)c1ccc(-c2ccc(-c3nc4ccc(NCCOCCOc5ccc6c(c5)C(=O)N(C5CCC(=O)NC5=O)C6=O)cc4s3)cc2)cn1 (stereo not shown) [Compound 160219] | 6.82
CN(C)c1ccc(-c2ccc(-c3nc4ccc(NCCOCCOc5ccc6c(c5)CN(C5CCC(=O)NC5=O)C6=O)cc4s3)cc2)cn1 (stereo not shown) [Compound 160313] | 6.66
CN(C)c1ccc(-c2ccc(-c3nc4ccc(NCCOCCOCCOCCOCCOCCOc5ccc6c(c5)CN(C5CCC(=O)NC5=O)C6=O)cc4s3)cc2)cn1 (stereo not shown) [Compound 160273] | 6.57

Looking up CN(C)c1ccc2nc(-c3ccc(-c4ccc(NCCOCCOCCOCCOCCOCCOc5ccc6c(c5)C(=O)N(C5CCC(=O)NC5=O)C6=O)nc4)cc3)sc2c1 (stereo not shown) [Compound 160275] , I found its pIC50 recorded as 5.89

* * *

# Tested On: heparin-induced aggregated tau (aTau), full-length 2N4R human Tau (Homo sapiens, UniProt P10636)
# Construct: transformed with a full-length 2N4R tau expression plasmid
# Protocol Details: PBB5 competition assay
# Experimental Setup: 0.12 μM aTau, 0.1 μM PBB5, 37° C. 1 hour, PBB5 fluorescence 530/690 nm
Readout Kind: IC50 (nM)
Answer with a number only, understood to be in nM.

Sample answers from the record:
CN(C)c1ccc(-c2ccc(-c3nc4ccc(NCCOCCOCCOCCOCCOCCOc5ccc6c(c5)C(=O)N(C5CCC(=O)NC5=O)C6=O)cc4s3)cc2)cn1 (stereo not drawn) | 320
CN(C)c1ccc(-c2ccc(-c3cn4cc(OCCOCCOCCOCCOCCOCCOc5ccc6c(c5)C(=O)N(C5CCC(=O)NC5=O)C6=O)ccc4n3)cc2)c(F)n1 (stereo not drawn) | 5960

# ---- query molecule ----
Looking up CN(C)c1ccc2nc(-c3ccc(-c4ccc(NCCOCCOCCOCCOCCOCCOc5ccc6c(c5)CN(C5CCC(=O)NC5=O)C6=O)nc4)cc3)sc2c1 (stereo not drawn) , I found its IC50 recorded as 270
